test: Total AUC in cynomolgus monkey at 3 mg/kg, po administered as single dose; format: ADME, organism-based, Macaca fascicularis; parameters: dose 3 mg/kg, time AUCmax, route oral; details: in vivo
property-label: AUC (ng·h/mL)
Give the value in ng·h/mL but do not write ng·h/mL after it.

// recorded AUC for CS(=O)(=O)N1CCC(C(O)(c2cncnc2Nc2ccc(F)cc2)C(F)(F)F)CC1 (racemic) : 3300

---

Target: Cytochrome P450 11B1, mitochondrial (Homo sapiens, UniProt P15538)
Sequence (P15538 whole entry): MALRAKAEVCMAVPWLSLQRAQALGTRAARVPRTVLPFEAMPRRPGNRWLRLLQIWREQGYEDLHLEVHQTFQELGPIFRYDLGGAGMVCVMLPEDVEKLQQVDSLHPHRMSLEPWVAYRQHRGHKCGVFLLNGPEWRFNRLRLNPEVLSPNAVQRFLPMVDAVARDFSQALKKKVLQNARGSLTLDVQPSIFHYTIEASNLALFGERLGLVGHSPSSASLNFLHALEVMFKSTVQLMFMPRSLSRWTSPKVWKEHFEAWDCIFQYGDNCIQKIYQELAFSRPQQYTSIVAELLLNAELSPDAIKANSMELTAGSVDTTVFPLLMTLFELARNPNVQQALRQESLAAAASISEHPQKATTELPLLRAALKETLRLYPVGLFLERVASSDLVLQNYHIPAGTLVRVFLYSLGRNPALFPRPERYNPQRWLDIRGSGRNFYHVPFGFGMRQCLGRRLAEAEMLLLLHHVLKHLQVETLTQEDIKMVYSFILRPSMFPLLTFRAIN
Test: Inhibition of human CYP11B1 expressed in HEK293A cells
Kindly state IC50 for each of the entries shown.

Noted for CS(=O)(=O)N1CCC(C(O)c2cncnc2Nc2cccc(F)c2)CC1 (racemic) : its IC50 reads 13 nM

Entry Cc1ccc(Nc2ncncc2C(O)C2CCN(S(C)(=O)=O)CC2)cc1 (racemic) — recorded IC50 = 19 nM

GET /value?item= CCCC(O)c1cncnc1Nc1ccc(F)cc1 (racemic) &field=IC50 returns 181 nM

The compound CS(=O)(=O)N1CCC(C(O)c2cncnc2Nc2ccc(C#N)cc2)CC1 (racemic) showed IC50 equal to 11 nM

Item: CS(=O)(=O)N1CCC(C(O)(c2cncnc2Nc2ccc(F)cc2)C(F)(F)F)CC1 (single isomer, unassigned; isomer 1) | IC50: 1.1 nM

Notebook: CS(=O)(=O)N1CCC(C(O)c2cncnc2Nc2ccc(F)cc2)CC1 (racemic) , IC50 read as 10 nM

Summary for this compound, CCCCC(O)(c1cncnc1Nc1ccc(F)cc1)C1CCN(S(C)(=O)=O)CC1 (racemic) : IC50 is 124 nM

Entry CS(=O)(=O)N1CCC(C(O)c2cncnc2Nc2ccc(C(F)(F)F)cc2)CC1 (racemic) ; IC50 = 16 nM

// sample CS(=O)(=O)N1CCC(C(O)c2cncnc2Sc2ccc(F)cc2)CC1 (racemic) , its IC50 was 0.6 nM

OC(c1ccccc1)c1cncnc1Nc1ccc(F)cc1 (racemic) yielded IC50 of 93 nM

IC50 reading for CC(O)(c1cncnc1Nc1ccc(F)cc1)C1CCN(S(C)(=O)=O)CC1 (racemic) : 6 nM

---

assay: Plasma protein binding in mouse; format: ADME, cell-free; details: read-out: PPB (converted)
property-label: fraction unbound
Please give the numeric answer without any surrounding text.

The value of fraction unbound measured for the compound CS(=O)(=O)N1CCC(C(O)(c2cncnc2Nc2ccc(F)cc2)C(F)(F)F)CC1 (racemic) turned out to be 0.185
